measured on: TBK1 (Homo sapiens, UniProt Q9UHD2)
Sequence (Q9UHD2 whole entry, species assumed): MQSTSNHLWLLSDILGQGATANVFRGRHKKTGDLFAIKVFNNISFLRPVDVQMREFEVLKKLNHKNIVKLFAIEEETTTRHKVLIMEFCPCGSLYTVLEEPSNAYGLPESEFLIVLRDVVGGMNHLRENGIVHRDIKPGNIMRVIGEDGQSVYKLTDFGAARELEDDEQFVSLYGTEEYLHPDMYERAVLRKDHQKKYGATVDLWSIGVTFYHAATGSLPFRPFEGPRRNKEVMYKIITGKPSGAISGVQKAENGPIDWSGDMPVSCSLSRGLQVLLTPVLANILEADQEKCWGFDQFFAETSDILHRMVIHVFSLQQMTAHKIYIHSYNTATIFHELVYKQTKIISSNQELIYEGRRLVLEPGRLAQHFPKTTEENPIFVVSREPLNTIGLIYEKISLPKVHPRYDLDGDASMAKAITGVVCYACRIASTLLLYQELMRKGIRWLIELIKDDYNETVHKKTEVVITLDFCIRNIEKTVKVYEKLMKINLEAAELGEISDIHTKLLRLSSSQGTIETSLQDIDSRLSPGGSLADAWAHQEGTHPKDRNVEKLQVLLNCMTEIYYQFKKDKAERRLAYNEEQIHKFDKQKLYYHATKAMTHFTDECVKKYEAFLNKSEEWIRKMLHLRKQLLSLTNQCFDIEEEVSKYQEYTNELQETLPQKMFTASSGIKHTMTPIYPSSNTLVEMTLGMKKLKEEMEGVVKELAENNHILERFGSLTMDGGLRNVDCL
measurement notes: TBK Biochemical Assay
experimental setup: read-out: TBK1 IC50
pIC50: −log10 of the molar value. Where a name gives a salt, the structure may show the parent alone.
# maps each entry to its pIC50
parameter: pIC50

compound | val
COc1cc(C(=O)NNC(=O)OC(C)(C)C)ccc1-c1cc2nccc(-c3ccc(OC4CCOCC4)c(C#N)c3)c2o1 | > 7.00
COc1cc(C(=O)NC2CN3CCC2CC3)cnc1-c1cc2nccc(-c3ccc(N4CC[C@@H](F)C4)c(C#N)c3)c2o1 (stereo partly shown) [Compound 442] | > 7.00
COc1cc(C(=O)NC2(CO)CCN(C)C2)ccc1-c1cc2nccc(-c3ccc(OC4CCOCC4)c(C#N)c3)c2o1 (stereo not shown) | > 7.00
COc1cc(C(=O)N(C)C)cnc1-c1cc2ncc(C3CC3)c(-c3ccc(NC4CCOCC4)c(C#N)n3)c2o1 [Compound 353, hydrochloride] | < 5.30
COc1cc(C(=O)N(C)C)ccc1-c1cc2nccc(-c3ccc(OC4CCCNC4)c(C#N)c3)c2o1 (stereo not shown) [Compound 140, Hydrochloride] | > 7.00
N#Cc1cc(-c2ccnc3cc(-c4ccc(C(=O)N5CCC(F)(F)C5)cc4)oc23)ccc1OC1CCOCC1 | > 7.00
CN(CCO)C(=O)c1ccc(-c2cc3ncc(F)c(-c4ccc(NC5CCOCC5)c(C#N)c4)c3o2)c(F)c1 | 6.00 to 7.00
